- ASSAY_DETAILS: NF-kB reporter blockers in CF airway cells – cell-based, GFP fluorescence, uHTS, primary screen (AID 588850);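 note: PAF is a Pseudomonas aeruginosa culture filtrate used as stimulus; plate controls were PAF-stimulated DMSO wells for no effect and unstimulated DMSO wells for full effect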
- RECORDED_CONDITIONS: KKLEB NF-kB-GFP reporter, PAF-induced, GFP fluorescence overnight; at 5 µM; active compounds read high
In all, about 360,000 compounds went through this assay and about 3,100 (0.86%) were called active. The sample as a whole holds a higher share of actives than the screen did.
MEASUREMENT_TYPE: inhibition (%)
Respond numerically; units are % and should not be typed.

O=C(Nc1ccc(Br)c2cccnc12)c1ccc(Cn2cc([N+](=O)[O-])cn2)o1	14.3
N#C/C=C1\Sc2ccccc2C(=O)N1CC(=O)N1CCN(S(=O)(=O)c2ccccc2)CC1	8.2
CCOC(=O)CN1CC23C=CC(O2)C(C(=O)Nc2ccc(F)cc2)C3C1=O (stereo not given)	-8.9
Cc1cccc(C)c1Cn1c(C)c(C(=O)NCc2cccc(Cl)c2)sc1=O	10.9
CC(C(=O)N1CCOCC1)N1c2cccc3cccc(c23)S1(=O)=O (stereo not given)	4.3
CCCn1nc(C(=O)NNC(=O)CSCC(=O)Nc2cc(C)on2)c2ccccc2c1=O	16.2
CN(C(=O)CC1C(=O)NCCN1Cc1ccc2ccccc2c1)C1CCOCC1 (stereo not given)	15.4
COC(=O)c1c(C)[nH]c(C(=O)/C=C/c2ccc(Cl)cc2)c1C	3.1

Q: I would be grateful if you could share the reported inhibition for O=c1[nH]c2ccccc2n1C1CCN(CCOc2ccccc2)CC1 .
Result: -0.9

Q: I would be grateful if you could share the reported inhibition for Cc1cc(OC(=O)c2ccccc2Cl)ccc1N1C(=O)CCC1=O .
Result: -7.9
